tested on: CAKI-1 renal; experiment: NCI tumour cell line growth inhibition, 48 h
Assign t whenever TGI does not fall below 20 µM; assign f whenever it does.

# Compound, Category label
measured = [
    ("O=C(CI)Nc1ccc(Br)cc1", "f"),
    ("CSc1nc(SC)c2c(C)cn(COCCOC(=O)c3ccccc3)c2n1", "t"),
    ("COc1ccc2c(c1)-c1c(c3cc(OC)ccc3n(CCN(C)C)c1=O)C2=O", "f"),
    ("CC(C)(C)OC(=O)N1N=CCC1c1ccccc1 (configuration not stated)", "t"),
    ("COc1cccc(OC)c1NC(=O)C(=O)Nn1c(NNC(=O)c2ccncc2)nc2ccccc2c1=O", "t"),
]

Qu. Check if TGI >= 20 µM (inclusive). Item: COc1cc(C(=O)O[C@H](C(=O)NCCCCNC(=O)[C@@H](OC(=O)c2cc(OC)cc3c(C)cccc23)[C@]2(C)CO2)[C@]2(C)CO2)c2cccc(C)c2c1
Ans. f

Qu. Please indicate if the recorded TGI for COc1ccc(-c2cc(-c3ccc(Nc4ccnc5cc(Cl)ccc45)cc3)[nH]c(=O)c2C#N)cc1 meets or exceeds 20 µM.
Ans. t

Qu. Exam item: decide whether the reported TGI for COc1ccc(C2=NNC(=O)c3ccccc3N2c2nc(-c3cccs3)nc3cc(OC)c(OC)cc23)cc1 is at least 20 µM.
Ans. t

Qu. Tell me whether TGI is at least 20 µM here: Cc1nn2c(c1C#N)NNc1c-2sc(=N)nnc1=O
Ans. t

Qu. Kindly determine if TGI recorded for COc1cc(S(=O)(=O)Nc2ccc(-c3csc(N4C(=O)CSC4c4ccccc4O)n3)cc2)ccc1Cl (configuration not stated) is above or exactly 20 µM.
Ans. t

Qu. Does the compound O=C(NCCNCCO)c1ccc(Nc2nc3ccccc3c3occc23)cc1 have recorded TGI that is 20 µM or more?
Ans. t

Qu. State whether the measured TGI reaches 20 µM, counting equality as reaching it, for CSc1nc(NCc2ccccc2)c2cnn(COCCO)c2n1
Ans. t

---

test system: U251 CNS; assay: NCI tumour cell line growth inhibition, 48 h
Observable: TGI (µM)
Express the result in µM but write the number alone.

# Substance smiles, Units text, Recorded result
data = [
    ("CCCCCCCCCCCC[N+]12CC[N+](C)(CC1)CC2", "µM", 29.9),
]

Memo: CCSc1nc(N/N=C/c2cccs2)c2cnn(CO)c2n1 , reported TGI: 30.1

The molecule identified as CSc1ccc2c(c1)c(CCN)c(C)n2Cc1ccccc1Cl registered its TGI at 3.06

---

test system: SK-MEL-5 melanoma; assay: NCI tumour cell line growth inhibition, 48 h
# cutoff 30 µM applies to TGI; >= gives TRUE, < gives FALSE

# example entries with known answers
# Compound, Category label
records = [
    ("CCCCCCCCCCCC[N+]12CC[N+](C)(CC1)CC2", "TRUE"),
    ("O=C(CC(C(=O)c1cccs1)c1ccsc1)c1ccc(Cl)s1 (stereo unspecified)", "TRUE"),
    ("COc1cc(-c2ccc[nH]2)[nH]c1/C=C1\\N=C(C)C(CC(=O)OCC(C)(C)C)=C1C", "FALSE"),
    ("COc1ccc(C(O)c2ccccn2)cc1 (stereo unspecified)", "TRUE"),
    ("CCC(c1ccccc1)c1cc(C(C)(C)C)cc(C(C)(C)C)c1O (stereo unspecified)", "TRUE"),
]

Qu. TGI >= 30 µM for Fc1ccc(Nc2nc(Nc3ccc(-c4nc5ccccc5[nH]4)cc3)c3cn[nH]c3n2)cc1 ?
Ans. FALSE

Qu. Answer whether TGI of CSc1nc(NCc2ccccc2)c2cnn(COCCO)c2n1 is greater than or equal to 30 µM.
Ans. TRUE

Qu. Given O=C1C(=C([O-])c2ccccc2)C(=O)c2ccccc21.O=C1C(=C([O-])c2ccccc2)C(=O)c2ccccc21.[Ni+2] , state whether its TGI is at least 30 µM.
Ans. TRUE

Qu. In plain terms: is recorded TGI at least 30 µM for O=C1C(Cl)=C(NCCCN(CCCNC2=C(Cl)C(=O)c3ccccc3C2=O)C2=C(Cl)C(=O)c3ccccc3C2=O)C(=O)c2ccccc21 ?
Ans. FALSE

---

system: U251 CNS; experiment: NCI tumour cell line growth inhibition, 48 h
Observable: TGI

Examples with their reported TGI follow.
# Compound, Recorded result
rows = [
    ("CSc1ncc2c(n1)-c1ccccc1OC2", "> 100 µM"),
    ("CCOC(=O)C1C(=O)CC(=O)C2CCCCC21 (stereo not given)", "> 100 µM"),
    ("O=C1NC(=NCCc2ccc(Br)cc2)S/C1=C\\c1ccc2ncccc2c1", "> 25 µM"),
    ("CC(=O)NC(C)(C)C1CCC(C)CC1 (stereo not given)", "> 100 µM"),
]

Field: next compound
The compound CC(=O)C1C(=O)C(=O)N(CCN2C(=O)C(=O)C(C(C)=O)C2=O)C1=O (stereo not given) showed TGI equal to > 100 µM

---

tested on: RXF 393 renal; test: NCI tumour cell line growth inhibition, 48 h
Observable: TGI

Examples with answers:
# Compound, Observable, Recorded result
records = [
    ("CC(=O)OCC1OC(N=[N+]=[N-])C(OC(C)=O)C(OC(C)=O)C1OC1OC(COC(C)=O)C(OC(C)=O)C(OC(C)=O)C1OC(C)=O (configuration not stated)", "TGI", "> 100 µM"),
    ("CCS(=O)(=O)c1ccc(OC)c(Nc2ncc(-c3cccc(F)c3)o2)c1", "TGI", "> 25 µM"),
    ("Clc1ccc(-c2nc(NCc3ccco3)c3ccccc3n2)c(Cl)c1", "TGI", "43.1 µM"),
    ("Cc1cc(N2CCOCC2)nc(NCc2cc(Nc3ccnc4cc(Cl)ccc34)ccc2F)n1", "TGI", "3.37 µM"),
    ("COc1ccc([I+]c2ccc(OC)cc2)cc1", "TGI", "> 100 µM"),
    ("C/C(=N\\NC(N)=S)c1nc2ncccc2[nH]1", "TGI", "> 100 µM"),
]

Then there is this compound:
Recorded TGI (compound O=C(C(=CN1CCN(C(=O)c2ccco2)C1=S)C(=O)c1ccccc1)c1ccccc1 ): 14.8 µM

---

// TGI lookup, one value per entry
tested on: A549 NSCLC; assay: NCI tumour cell line growth inhibition, 48 h

Guide cases for TGI, answers given:
# Molecule, Recorded result
measured = [
    ("COc1cc(O)c(Cc2ccccc2O)c(O)c1C(=O)CCc1ccccc1", "21.8 µM"),
    ("COc1cccc(OC)c1NC(=O)C(=O)Nn1c(NNC(=O)c2ccncc2)nc2ccccc2c1=O", "> 100 µM"),
    ("CC(C)(C)OC(=O)N1N=CCC1c1ccccc1 (stereo not drawn)", "> 100 µM"),
    ("Cc1cc(N(CCNc2ccnc3cc(Cl)ccc23)Cc2ccc3c(c2)OCO3)nc(N2CCCC2)n1", "4.96 µM"),
    ("COc1ccc(C2=Nc3ccccc3N=C(SC)C2)cc1", "> 100 µM"),
    ("COc1ccc(-c2oc3cc(O)c(OC)c(O)c3c(=O)c2O)cc1", "18 µM"),
]

Record N#CC1=C(N)N(/N=C/c2ccco2)C(c2ccco2)C1(C#N)C#N (stereo not drawn) . Reported TGI: 56.2 µM

// sample CSc1nnc(C(C#N)C#N)nn1 , its TGI was > 100 µM

response.value for COc1ccc(NC(=O)C(=O)Cc2ccc([N+](=O)[O-])c([N+](=O)[O-])c2CC(=O)C(=O)Nc2ccc(OC)cc2OC)c(OC)c1 (field: TGI) = > 100 µM

Documented TGI of COc1ccc(C(=O)C(C(=O)C(=O)NCCCNC(=O)C(=O)C(C(=O)c2ccc(OC)cc2)c2ccc(OC)cc2)c2ccc(OC)cc2)cc1 (stereo not drawn) : > 100 µM

Consider CSc1ncc2c(n1)-c1ccccc1OC2 . Its measured TGI is > 100 µM

Lab note: measured TGI of Fc1ccc(Nc2nc(Nc3ccc(-c4nc5ccccc5[nH]4)cc3)c3cn[nH]c3n2)cc1 was 6.78 µM

Consider COc1cc(/C=C/C(=N\NC(N)=S)c2sc(NNC(C)=O)nc2C)ccc1O . Its measured TGI is > 100 µM

---

system: LOX IMVI melanoma; test: NCI tumour cell line growth inhibition, 48 h
TGI values, listed per item
Just the number in µM, nothing appended.

# Compound, TGI / µM
measured = [
    ("O=C(C(=CN1CCN(C(=O)c2ccco2)C1=S)C(=O)c1ccccc1)c1ccccc1", 4.1),
    ("CC(=O)[CH-]C(=O)c1ccccc1.CC(=O)[CH-]C(=O)c1ccccc1.CC(=O)[CH-]C(=O)c1ccccc1.[Ga+3]", 31.7),
    ("NC(=S)N1N=C2c3ccccc3CCC[C@H]2[C@@H]1c1ccccc1", 16.4),
    ("CC1=C[C@@H]2c3c(c(O)c(O)c4oc5cc(O)cc(O)c5c(=O)c34)[C@@H](c3cc(O)c(O)c4oc5cc(O)cc(O)c5c(=O)c34)[C@@H]2C(C)(C)C1", 4.26),
    ("COc1ccccc1C(=O)OCC1CCCN2CCCCC12 (configuration not stated)", 34.8),
    ("CCCCCCCCCCCCOC1C(COCCN2CCCCC2)OC2OC(C)(C)OC21 (configuration not stated)", 3.01),
]

Briefly, TGI measured for Fc1ccc(Nc2nc(Nc3ccc(-c4nc5ccccc5[nH]4)cc3)c3cn[nH]c3n2)cc1 : 3.62

Memo: CC(=O)Nc1ccc(/C=c2\sc3nnc(-c4cccnc4)n3c2=O)cc1 , reported TGI: 30.7

TGI in this record for COc1ccc(C2=Nc3ccccc3N=C(SC)C2)cc1 : 34.6
